Each recorded value in this set is attributed to PubChem BioAssay (NCI).

assay: NCI Yeast Anticancer Drug Screen. Data for the bub3 strain (AID 167); conditions: S. cerevisiae bub3 mutant strain, at 50.0 µM
The panel holds about 79,000 compounds, 15% with a hit somewhere; the sample as a whole holds those more often. The source made the active and inactive calls. No stated cut-off is given here; in the data, active means growth inhibition above about 70%; inactive means the rest.
Your response should consist of one outcome taken from active, inactive

Some solved entries appear below for comparison.
COC(=O)c1cc(C)ncc1C#N : inactive
CCOC(=O)NC(Nc1ccc(C(=O)OCC)cc1)(C(F)(F)F)C(F)(F)F : inactive
O=C(CN1C(=O)CC(NC(=O)OCc2ccccc2)C1=O)NCC(=O)Oc1ccc([N+](=O)[O-])cc1 (stereo unspecified) : inactive
O=C1C2C3(CCl)C1C23CCl (stereo unspecified) : inactive

Hi, do you know how O=C(c1ccccc1)C1Nc2ccc(Cl)cc2C2C=CCC12 (stereo unspecified) came out in this test?
inactive

Repeat with Cn1c(=O)c2c(nc3sc4c(n32)C(=O)c2c(O)ccc(O)c2C4=O)n(C)c1=O
inactive

###

Entries and their measured growth inhibition follow.
test: NCI Yeast Anticancer Drug Screen. Data for the rad50 strain (AID 155);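 further: 0% = growth of vehicle-only cultures of the same strain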; settings: S. cerevisiae rad50 strain growth inhibition; at 50.0 µM; active compounds read high
Compounds without any hit were thinned out: in the full panel of roughly 79,000, 15% have a hit.
Please respond with the number in % and leave the unit unwritten.

Please review the following examples before continuing.
COc1ccc(C2OC3=C(Nc4ccc([N+](=O)[O-])cc4N3)C2=O)cc1 (centres undefined) : -7.25
O=C(O)c1cc(C2CC2)nc2ccc(Br)cc12 : 13.6

Shift focus to the following entry.
Give the measured growth inhibition of CON(C)CCOC(=O)c1ccc([N+](=O)[O-])cc1 .
-5.25

###

assay: NCI Yeast Anticancer Drug Screen. Data for the rad50 strain (AID 155);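 further: 0% = growth of vehicle-only cultures of the same strain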; settings: S. cerevisiae rad50 strain growth inhibition; at 50.0 µM; active compounds read high
The panel holds about 79,000 compounds, 15% with a hit somewhere; the sample as a whole holds those more often.
measured parameter: growth inhibition (%)
Please respond with the number in % and leave the unit unwritten.

Please review the following examples before continuing.
O=C(O)CCCCCCc1ccc2ccccc2n1 : 16.8
O1[SiH]2[SiH]3O[SiH]3[SiH]3O[SiH]3[SiH]12 (stereo unspecified) : -16.8
Cc1cc(CC(=S)[S-])[n+](C)c(CC(=S)S)c1 : 12.2
CC(=O)c1sc2c(c1OC(=O)c1ccc(Cl)cc1)c(=O)n(-c1ccccc1)c(=S)n2-c1ccccc1 : 9.55
CC(C)NCC(C)(C)[N+](=O)[O-] : 5.05
O=C(N/N=C/c1cccnc1)C(O)C(O)C(O)C(O)CO (stereo unspecified) : -4.15
O=C1CCCc2ccccc21 : -2.35
CC1=C(O)C(=O)C(C2=C(O)C(=O)C(C)=C(O)C2=O)=C(O)C1=O : 5.3
CCOC(=O)/C=C\[C@H]1OC(C)(C)O[C@H]1[C@H](O)[C@H]1COC(C)(C)O1 : -22.3
CCCCCCCC1CC(OCC)OC(CCCCCCC)O1 (stereo unspecified) : -1.8

Give the measured growth inhibition of CCOC(=O)C(N=Nc1ccc(C)cc1Br)C(C)=O (stereo unspecified) .
16.2

Repeat with COc1ccc2c(c1O)-c1cccc3c1C(C2)N(CCOCCCl)CC3 (stereo unspecified)
28.4

Repeat with CCOC(=O)c1cc(C)nc2ccc(Br)cc12
-3.2

Repeat with COC(=O)C(C(=O)C(=O)Nc1ccccc1C(C)=O)c1nc2ccc(Cl)cc2[nH]c1=O (stereo unspecified)
-31.9

Repeat with Cn1c(Cl)cn2c3nc4ccccc4nc3c(=O)c(C#N)c12
6.1

Repeat with COC(=O)c1[nH]c(=O)[nH]c(=S)c1N
7.75

###

test: NCI Yeast Anticancer Drug Screen. Data for the rad50 strain (AID 155);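 further: 0% = growth of vehicle-only cultures of the same strain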; conditions: S. cerevisiae rad50 strain growth inhibition; at 50.0 µM
About 79,000 compounds went through this panel and 15% of them were active in at least one assay; those are over-represented in the sample as a whole. Activity calls are given as the source filed them. Rule as the data show it: active = growth inhibition above about 70%; inactive = the rest. Where a SMILES comes first, the peptide text is derived from it. [ ]: non-standard residue; d: D form. The star is where a group is joined. ξ: configuration not given here. Cbz = O=C(OCc1ccccc1)*; ξK = NCCCCC(N)C(=O)O
Your response should consist of one outcome taken from active, inactive

COc1ccc(CN2CCCN(Cc3ccc(OC)cc3OC)C2c2cccc(OC)c2O)c(OC)c1 : inactive
CC(CC(C(=O)N(C)C)(c1ccccc1)c1ccccc1)[N+](C)(C)[O-] (centres undefined) : inactive
NCCCCC(NC(=O)OCc1ccccc1)C(=O)NCC(N)=O (centres undefined) (Cbz-[ξK]-Gly-NH2) : inactive
S=C1NC=CC(S)N1 (centres undefined) : inactive
Cc1cc(=O)oc2c(CNC(C(=O)O)C(C)C)c(O)ccc12 (centres undefined) : inactive

Hi, do you know how C/C(C/C(C)=N/O)=N/O came out in this test?
inactive

Repeat with C[n+]1ccccc1/C=C/c1ccc2c(c1)OCO2
inactive

Repeat with O=[N+]([O-])c1ccc(-c2nc3ccncc3[nH]2)cc1
inactive

Repeat with Cc1ccc(N2C(=O)/C(=C/c3ccc(N(CCC#N)CCC#N)cc3)CC2(O)c2ccccc2)cc1 (centres undefined)
inactive

Repeat with CC(C)CC(N)C(=O)NC(Cc1cc2ccccc2[nH]1)C(=O)O (centres undefined)
inactive

Repeat with COc1ccc2nc3cc(Cl)ccc3c(Sc3ccc(NC(C)=O)cc3)c2c1
inactive

Repeat with Fc1c(F)c(-c2c(F)c(F)c(Br)c(F)c2F)c(F)c(F)c1Br
inactive

Repeat with Cc1ccc(S(=O)(=O)NC(=O)NC23CC4CC(CC(F)(C4)C2)C3)cc1
inactive

Repeat with CC(=O)C1(C)OC(c2ccccc2)=NC1=S (centres undefined)
inactive

Repeat with Cc1cccc(NS(=O)(=O)c2ccc3c(c2)OCCOCCOCCOCCO3)c1
inactive

Repeat with N#CCCCN1CCOCC1
inactive

Repeat with CN=S(=O)(OC/C=C/COS(=O)(=NC)c1ccc(C)cc1)c1ccc(C)cc1 (centres undefined)
inactive

Repeat with O=C(CC(O)(CCc1ccccc1)c1ccccc1)N1CCC(O)(c2ccccc2)CC1 (centres undefined)
active

Repeat with CSc1ncc2c(C#N)c3ccccn3c(=O)c2n1
inactive

Repeat with CN(C)C(=O)C1CCNCC1
inactive

Repeat with CC(C)/C(=N\[N+](C)(C)C)c1ccccc1
inactive

Repeat with COc1ccc(C(=O)Oc2ccc(C)c(CC(Cl)(Cl)Cl)c2)cc1
inactive

Repeat with Cc1nc2ccccc2c(=O)o1
inactive

Repeat with C[N+](C)(C)C(C1=CCCC1=O)c1ccccc1 (centres undefined)
inactive

Repeat with Cc1c(CN2CCOCC2)c(CN2CCOCC2)c(C)n1-c1ccc(Cl)cn1
inactive

Repeat with O=C(O)C1=C(C(=O)Nc2ccc(NC(=O)C3=C(C(=O)O)C4C=CC3C4)cc2)C2C=CC1C2
inactive

Repeat with Cc1ccc2c(c1)C(=O)c1ccccc1C2=O
inactive

Repeat with CC(=O)NC(Cc1c[nH]c2ccccc12)C(=O)Oc1ccc([N+](=O)[O-])cc1 (centres undefined)
inactive

###

experiment: NCI Yeast Anticancer Drug Screen. Data for the sgs1 mgt1 strain (AID 161);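 further: 0% = growth of cultures given vehicle only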; conditions: S. cerevisiae sgs1 mgt1 strain, at 50.0 µM, active compounds read high
This is part of a sample that, as a whole, favours compounds with a hit. Of some 79,000 tested, about 15% had one in any assay.
measured parameter: growth inhibition (%)
Please respond with the number in % and leave the unit unwritten.

Give the measured growth inhibition of CC(=O)NCCc1ccc(Cl)c(Cl)c1 .
-5.95

Repeat with CN(C)CCC(=O)C(=Cc1ccc(O)cc1)C(=O)CCN(C)C
-2.4

Repeat with OCC(O)c1ccccn1 (configuration not stated)
6.65

Repeat with NCCC(=O)O
-8.25

Repeat with Cc1cc(S(N)(=O)=O)c2ncccc2c1
2.35

Repeat with OCC(O)C(O)C(O)C(O)CNC(CO)(CO)CO (configuration not stated)
18.6

###

assay: NCI Yeast Anticancer Drug Screen. Data for the rad50 strain (AID 155);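 further: 0% = growth of vehicle-only cultures of the same strain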; details: S. cerevisiae rad50 strain growth inhibition; at 50.0 µM; active compounds read high
About 79,000 compounds went through this panel and 15% of them were active in at least one assay; those are over-represented in the sample as a whole.
measured parameter: growth inhibition (%)
Please respond with the number in % and leave the unit unwritten.

Please review the following examples before continuing.
O=C(O)C1CCCCN1O (stereo not given) : -7.85
ClCCOc1ccc2ccccc2c1 : 13.4
CCN(CC)CCNC(=O)c1ccc(C)c(OCc2ccccc2)c1[N+](=O)[O-] : -9.4
Nc1cccc2c1C(=O)c1cccc(N)c1C2=O : 7.65
CC(C)(C)c1ccc(OC(=S)Nc2ccccc2)cc1 : -32.8

Shift focus to the following entry.
Give the measured growth inhibition of CC(=O)C(c1ccccc1)S(=O)(=O)c1ccc(C)cc1 (stereo not given) .
13.8

###

test: NCI Yeast Anticancer Drug Screen. Data for the mlh1 rad18 strain (AID 175); conditions: S. cerevisiae mlh1 rad18 strain growth inhibition; at 50.0 µM
Compounds without any hit were thinned out: in the full panel of roughly 79,000, 15% have a hit. Active and inactive are the calls of the source. Cut-off read from the data, not from the text of the source: active = growth inhibition above about 70%; inactive = the rest.
Your response should consist of one outcome taken from active, inactive

Some solved entries appear below for comparison.
CN(C)/N=N/c1nc2c(c(=O)n(C)c(=O)n2C)n1C : inactive
NC(=O)c1nnc2c(F)cccc2c1N : inactive

Next:
Hi, do you know how CC/C(=N\NS(=O)(=O)c1ccc(C)cc1)c1ccc(Br)cc1 came out in this test?
inactive
